# System: COV362
# Assay notes: drug sensitivity score (DSS) from 5-point dose-response viability curve (DSS (area-under-curve based score)); higher = more sensitive (stronger growth inhibition or killing); extreme values may be limits of the assay
# Run parameters: exposure time: 72 h; concentration range: 5 concentrations over 10,000-fold range
Measured drug sensitivity score of individual entries
Measurement name: drug sensitivity score

INSERT INTO results (compound, reading) VALUES
  ('COc1cccc(OCCCN)c1-c1cc(Nc2cnc(C#N)cn2)n[nH]1', 16.8),
  ('CC[C@H](Nc1ncnc2[nH]cnc12)c1nc2cccc(F)c2c(=O)n1-c1ccccc1', 1.3),
  ('COc1cc(Nc2ncc(F)c(Nc3ccc4c(n3)NC(=O)C(C)(C)O4)n2)cc(OC)c1OC', 0),
  ('Cc1cnc(-c2ccccc2C(C)C)nc1NCc1ccc(-n2ccnn2)cc1', 0),
  ('COc1cccc2c1c(O)c(C(=O)N(C)c1ccc(C(F)(F)F)cc1)c(=O)n2C', 0),
  ('Nc1ccn([C@@H]2O[C@H](CO)[C@@H](O)C2(F)F)c(=O)n1', 8.1),
  ('CNC(=O)c1cccc(-c2ccc3c(N4CCOC[C@@H]4C)nc(N4CCOC[C@@H]4C)nc3n2)c1', 2.8),
  ('CC(C)C[C@@H](C(=O)N[C@H](C(=O)OC1CCCC1)c1ccccc1)[C@H](O)C(=O)NO', 0),
  ('CNC(=O)c1ccc(N2C(=S)N(c3cnc(C#N)c(C(F)(F)F)c3)C(=O)C23CCC3)cc1F [Apalutamide]', 0),
  ('CC(C)n1nc(-c2ccc3oc(N)nc3c2)c2c(N)ncnc21', 3.2),
  ('C=C(c1ccc(C(=O)O)cc1)c1cc2c(cc1C)C(C)(C)CCC2(C)C', 0),
  ('NC(=O)c1cccc(-c2cccc(OC(=O)NC3CCCCC3)c2)c1', 0),
  ('Oc1ccc2c(c1)CC[C@H](c1ccccc1)[C@@H]2c1ccc(OCCN2CCCC2)cc1', 0),
  ('COc1cc2c(NC3CCN(C(C)C)CC3)nc(C3CCCCC3)nc2cc1OCCCN1CCCC1', 4.1),
  ('CN1CC[C@H](c2c(O)cc(O)c3c(=O)cc(-c4ccccc4Cl)oc23)[C@H](O)C1', 12.1),
  ('O=C(c1cccc(Cl)c1F)N1CCN(Cc2cccc(Nc3nccs3)n2)CC1', 0),
  ('C[C@@H]1CN(Cc2ccc(F)cc2)[C@@H](C)CN1C(=O)c1cc2c(C(=O)C(=O)N(C)C)cn(C)c2cc1Cl', 0),
  ('Nc1cc(C(F)(F)F)c(-c2cc(N3CCOCC3)nc(N3CCOCC3)n2)cn1', 3.8),
  ('CC(C)c1c(C(=O)Nc2ccccc2)c(-c2ccccc2)c(-c2ccc(F)cc2)n1CC[C@@H](O)C[C@@H](O)CC(=O)O', 0),
  ('Cn1ncc(Cl)c1-c1cc(C(=O)N[C@H](CN)Cc2cccc(F)c2)sc1Cl', 0),
  ('COc1cc2c(cc1OC(C)C)[C@H](c1ccc(Cl)cc1)N(c1ccc(N(C)C[C@H]3CC[C@H](N4CCN(C)C(=O)C4)CC3)cc1)C(=O)C2', 4.6),
  ('CN1CCC(CNc2ccc3ncc(-c4cccc(OC(F)(F)F)c4)n3n2)CC1', 4.3),
  ('CC(=O)N(O)CCCCCNC(=O)CCC(=O)N(O)CCCCCNC(=O)CCC(=O)N(O)CCCCCN', 0.5),
  ('CCC(C)(C)C(=O)O[C@H]1C[C@@H](C)C=C2C=C[C@H](C)[C@H](CC[C@@H]3C[C@@H](O)CC(=O)O3)[C@H]21', 0.4),
  ('CC1=C2C[C@H]3[C@@H](CC[C@@H]4C[C@H](NS(C)(=O)=O)CC[C@@]43C)[C@@H]2CC[C@@]2(C1)O[C@@H]1C[C@H](C)CN[C@H]1[C@H]2C', 0),
  ('CC(C)Nc1cc(-c2c[nH]c(C(=O)N[C@H](CO)c3cccc(Cl)c3)c2)c(Cl)cn1', 1.9),
  ('Cc1cc(C)c(CNC(=O)c2cc(-c3ccc(CN4CCOCC4)cc3)cc3c2cnn3C2CCCC2)c(=O)[nH]1', 1.1),
  ('Cc1cc(OCc2nnc(SC3CCCC3)n2-c2cccnc2)ccc1-c1ccc(S(C)(=O)=O)cc1', 4.4),
  ('C[C@@H]1C=C2C(=O)O[C@@H]3CC[C@H](C1)[C@]23O', 2.9),
  ('Oc1ncnc2[nH]ncc12', 0),
  ('O=C(Nc1nc2cccc(-c3ccc(CN4CCS(=O)(=O)CC4)cc3)n2n1)C1CC1', 0.2),
  ('Cc1cc(Nc2nc(N[C@@H](C)c3ncc(F)cn3)ncc2Cl)[nH]n1', 0);
